Reported values of Enzyme Activity Endpoint Assay (purified): Fc for individual entries
testedOn: pooled human IgG
Include the unit after the number when you answer.

Sample answers from the record:
protein	result
PRT-615 (protein) MQITSVWTKGVTPLTPEQFRYNNEDVIHAPYLAHQGWYDITKAFDGKDNLLCGAATAGNMLHWWFDQNKTEIEAYLSKYPEKQKIIFNNQELFDLRAAINTKDSQTNSQLFNYFRDKAFPNLSARQLGVMPDLVLDMFINGYYLNVFKTQSTDVNRPYQDKDKRGGIFDAVFNRGDQTTLLTARHDLKNKGLNDISTIIKQELSSGRALALSHTYANVSISHVINLWGADFNAEGNLEAIYVTDSDANSNIGMKKYKVGINAHGHVAISAKKIEGENIGAQVLGLFTLSSGKDIWQKLSLEHHHHHH	441 ng/µL
PRT-155 (protein) MANQEIRYSEVTPYHVTSVWTDGVTPPANFTQGEDVFHAPYVANQGWYDITKTFNGKDDLLCGAATAGNMLHWWFDQNSTQIEAYLKKHPEKQKINFNGEQMFDVKEAIDTKNHQLDSKLFEYFKEKAFPYLSTKHLGVFPDHVIDMFINGYRLSLTNHGPTPVKEGSKDPRGGIFDAVFTRGDQSKLLTSRHDFKEKNLKEISDLIKKELTEGKALGLSHTYANVRINHVINLWGADFDSNGNLKAIYVTDSDSNASIGMKKYFVGVNSAGKVAISAKEIKEDNIGAQVLGLFTLSTGKKSWEKTN	197 ng/µL
PRT-281 (protein) MVTSVWTKGVTPPAKFTQGEDVFHAPYVANQGWYDITKTFNGKDDLLCGAATAGNMLHWWFDQNKEKIEAYLKKHPDKQKIMFGDQELLDVRKVINTKGDQTNSELFNYFRDKAFPNLSARRIGVMPDLVLDMFINGYYLNVYKTQTTDVNRTYQEKDRRGGIFDAVFTRGDQSKLLTSRHDFKEKNLKEISDLIKKELTEGKALGLSHTYANVRIGHVINLWGADFDSNGNLKAIYVTDSDSNASIGMKKYFVGVNSSGKVAISAKEIKEDNIGAQVLGLFTLSTGQDSWNQTN	317 ng/µL

Next, consider the following protein.
Exercise: Entry PRT-56 (protein) MANQEIRYSEVTPYHVTSVWTKGVTPPANFTQGEDVFHAPYVANQGWYDINKTFNGKDDLLCGAATAGNMLHWWFDQNKEYIDRYLEEHPEKQKINFNGEQMFDVKEAIDTKNHQLDSKLFEYFKEKAFPYLSTKHLGVFPDLVLDMFINGYRLSLTNHGPTPVKEGSKDPRGGFFDAVFTRGDQSKLLTSRHDFKEKNLKEISDLIKKELTEGKALGLSHTYANVRINHVINLWGADFDSNGNLKAIYVTDSDSNASVGMKKYFVGVNSAGKVAISAKEIKEDNIGAQVLGLFTLSTGQDSWNQTN : reported Enzyme Activity Endpoint Assay (purified): Fc = ?
Key: 13 ng/µL
